Test: Pseudomonas biofilm growth suppression – PAO1 strain, BacTiter-Glo luminescence, LB-PBS, primary screen (AID 1144)
Details: P. aeruginosa PAO1 biofilm, 12 h, higher = more signal
attributeMeasured: z-score
Note: the reply should be a number with no unit written.

O=C1OCCC=C[C@H]2OC34C=CCN(c5ccc6ccccc6c5)C(=O)[C@H]3N(CCCO)C(=O)[C@@H]4C12 (stereo partly drawn)    -0.633
COCCOC(=O)N1C(=O)[C@@]2(c3cc(C#CC4(O)CCCCCC4)ccc31)[C@H](C(=O)Nc1nc3ccccc3s1)[C@H]1C(=O)O[C@H](c3ccccc3)[C@H](c3ccccc3)N1[C@@H]2c1ccc(O)cc1    -0.374
COC(=O)[C@@]1(Cc2ccc(F)cc2)[C@H]2c3cc(C(=O)N(C)C)n(CCc4ccc(OC)c(Br)c4)c3C[C@H]2CN1C(=O)c1ccccc1    0.167
NCCCCCNC(=O)[C@@H]1C[C@@H]2C(=O)N[C@@H](CCCCN)C(=O)N2[C@@H]1c1ccc(O)cc1    -0.148
N#Cc1ccc(NN2C(C(O)c3ccc(Br)cc3)C=CC3C(=O)N(c4ccccc4)C(=O)C32)cc1 (stereo not drawn)    -1.3
COC(=O)[C@@H]1N=C(c2ccc(OCCCO)cc2)O[C@@H]1C    -0.123
Cc1ccc(S[C@]2(C(=O)NC(C)C)CC(=O)N(Cc3cc(C(F)(F)F)cc(C(F)(F)F)c3)[C@@H]2c2ccc(CO)cc2)cc1    0.0139

// switching to the query molecule
Q: What does the data say about its z-score? Entry: Cc1ccc(S[C@]2(C(=O)NCc3ccccc3)CC(=O)N(C3CCCCC3)[C@@H]2c2ccc(CO)cc2I)cc1
Ans: -0.183

* * *

// reported z-score for each item listed
Experiment: resazurin metabolic signal in A549 cells – cell-based, resazurin fluorescence, 24 h, PK04 Diversity Set, profiling panel (AID 1171); also: test concentration not given here
Conditions: A549 viability, higher = more signal, called active from +8 up or from −8 down
Activity calls are given as the source filed them.

Q: What value of z-score has been recorded for this entry: NCCCCCNC(=O)[C@H]1C[C@H]2C(=O)N3CCC[C@H]3C(=O)N2[C@H]1c1cccc(OCCO)c1
Ans: -0.845 (inactive)

Q: Name the reported z-score value associated with the compound COc1cc(NN2C(C(O)c3ccc(N(C)C)cc3)C=CC3C(=O)N(c4ccccc4)C(=O)C32)cc(OC)c1OC (stereo not drawn)
Ans: -0.815 (inactive)

Q: Need z-score of CCCC=C(CCC)[C@@H](NP(=O)(c1ccccc1)c1ccccc1)c1ccc(-c2ccccc2)cc1 , thanks.
Ans: 0.647 (inactive)

* * *

Test: inhibition of PAO1 biofilm formation – strain PAO1, LB-PBS medium, absorbance 600 nm, primary screen (AID 1176); also: test concentration not given here
Details: P. aeruginosa PAO1 growth/biofilm, A600, 12 h; higher = more signal
Property: z-score; scope: individual compounds
Just the number.

CCCCN1CC=CC23O[C@@H]4/C=C\CCC(C)OC(=O)C4[C@H]2C(=O)N(CCCO)[C@@H]3C1=O (stereo not given in full)    -0.112
C=CCC(OC(C)=O)[C@@H]1[C@@H](N(Cc2ccc(-c3ccccc3)cc2)C(=O)c2ccc(-c3ccccc3)cc2)c2cc(OCCCO)ccc2N1C(=O)c1ccc2ccccc2c1 (stereo not given in full)    0.35
CC(=O)NCCCC[C@@H]1NC(=O)[C@@H]2C[C@H](C(=O)NCCCCCN)[C@H](c3cccc(OCCO)c3)N2C1=O    0.392

Q: Looking for the measured z-score of C=CCNC(=O)[C@@H]1[C@H]2C(=O)O[C@H](c3ccccc3)[C@H](c3ccccc3)N2[C@H](c2ccccc2OCCO)[C@@]12C(=O)N(C(=O)OCCOC)c1ccc(C#CC3(O)CCCCCC3)cc12 , can you help?
Ans: 2.12

Q: For the compound C=CCNC(=O)[C@@H]1[C@H]2C(=O)O[C@H](c3ccccc3)[C@H](c3ccccc3)N2[C@H](c2ccc(OCCO)cc2)[C@@]12C(=O)N(C(=O)OCCOC)c1ccc(C#Cc3ccc(OC)cc3)cc12 , what z-score is on record?
Ans: 2.08
